assayed.system: 5-HT6 receptor (Homo sapiens, UniProt P50406)
Sequence (P50406 whole entry): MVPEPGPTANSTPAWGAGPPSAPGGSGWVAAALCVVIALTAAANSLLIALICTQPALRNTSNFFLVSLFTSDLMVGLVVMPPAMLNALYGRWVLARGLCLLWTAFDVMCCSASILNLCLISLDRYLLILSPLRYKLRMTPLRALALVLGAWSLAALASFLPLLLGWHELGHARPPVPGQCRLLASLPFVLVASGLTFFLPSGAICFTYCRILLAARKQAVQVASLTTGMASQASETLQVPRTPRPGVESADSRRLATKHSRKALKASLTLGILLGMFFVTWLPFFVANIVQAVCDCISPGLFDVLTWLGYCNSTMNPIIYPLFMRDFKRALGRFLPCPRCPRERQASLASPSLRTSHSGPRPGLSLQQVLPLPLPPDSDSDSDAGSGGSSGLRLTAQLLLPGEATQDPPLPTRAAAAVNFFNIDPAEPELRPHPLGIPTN
test.method.notes: Radioligand binding assay for 5-HT6 receptor ([3H]-LSD displacement)
Parameters: expressed in transfected cells; host or cells: HEK-293 (cryopreserved membranes)
conditions.used: competitive replacement of [3H]-LSD; ±S.E.M.; read-out: 5-HT6R Ki
recorded.endpoint: log10 of Ki (log10 of the value in µM)

| compound | log10 of Ki |
| --- | --- |
| Cl.Cl.NCCCC(=O)OCCN1CCN(c2cccc3c2OCC(=O)N3Cc2ccccc2)CC1 [Compound 19] | -1.60 |
| O=C1COc2c(N3CCN(CCO)CC3)cccc2N1Cc1ccccc1 [Compound 9] | -2.40 |
| NCCCC(=O)OCCN1CCN(c2cccc3c2OCCN3Cc2ccccc2)CC1 [Compound 20] | 0.10 |
| Cc1c(OCc2ccccc2)cccc1N1CCN(CCO)CC1 [Compound 6] | -2.10 |
| Cc1c(OCc2ccccc2)cccc1N1CCN(CCOC(=O)CCCN)CC1.Cl.Cl [Compound 16] | -1.80 |
| NCCCC(=O)OCCN1CCN(c2cccc3c2[nH]c(=O)n3Cc2ccccc2)CC1 [Compound 17] | -1.24 |
| O=c1[nH]c2c(N3CCN(CCO)CC3)cccc2n1Cc1ccccc1 [Compound 7] | -1.40 |
| Cl.Cl.NCCCC(=O)OCCN1CCN(c2cccc3c2oc(=O)n3Cc2ccccc2)CC1 [Compound 18] | -0.89 |
| OCCN1CCN(c2cccc3c2OCCN3Cc2ccccc2)CC1 [Compound 10] | -1.62 |
| O=c1oc2c(N3CCN(CCO)CC3)cccc2n1Cc1ccccc1 [Compound 8] | -0.82 |
